Would you mind telling me the reported GI50 of each entry?
tested on: EKVX; assay: NCI tumour cell line growth inhibition, 48 h
Calls of active or inactive are those of the source. Rule as the data show it: active = GI50 up to about 1.1 µM and inactive = higher.

Lab note: need GI50 with EKVX for entry COc1cc2c(cc1OC)[C@@H](Nc1ccc(F)cc1)C1COC(=O)[C@@H]1C2c1cc(OC)c(O)c(OC)c1 (stereo partly specified) , please look it up.
> 38.2 µM (inactive)

What value of GI50 on EKVX does "CC(C)N(C(=O)C1(C)CC1)C(C)C" have?
> 100 µM (inactive)

Could you tell me GI50 for each of these molecules? They are listed below.
1. COc1cc(S(=O)(=O)Nc2ccc(-c3csc(N)n3)cc2)ccc1Cl
2. COc1ccc(-c2cn3c(nc4ccccc43)c(C)n2)cc1
3. CCOC(=O)/C(C#N)=N\Nc1ccc(-n2c(C)nc3ccccc3c2=O)cc1

1: 16.6 µM (inactive); 2: 83 µM (inactive); 3: 53.2 µM (inactive)

Provide value of GI50 for this record tested with EKVX: "C[P+](C)(C)C"
> 100 µM (inactive)
